Source of measurements: ChEMBL document CHEMBL3588788

- assay comment: Selectivity index, ratio of IC50 against human WI38 cells to IC50 for Plasmodium falciparum 3D7
- Assay type: toxicity, cell-based, WI-38
- measurement conditions: read-out: Ratio IC50
metric: selectivity ratio
Format: numeric value only, no unit, no commentary.

mol: C=C[C@H]1CN2CC[C@H]1C[C@H]2[C@H](O)c1cc(CC[C@@H](C)[C@H]2CC[C@H]3[C@@H]4CC[C@@H]5C[C@H](O)CC[C@]5(C)[C@H]4C[C@H](O)[C@]23C)nc2ccccc12
selectivity ratio: 18

Recall and state the measured selectivity ratio for `C=C[C@H]1CN2CC[C@H]1C[C@@H]2[C@@H](O)c1cc(CC[C@@H](C)[C@H]2CC[C@H]3[C@@H]4[C@H](OC(C)=O)[C@H](OC(C)=O)[C@@H]5C[C@H](OC(C)=O)CC[C@]5(C)[C@H]4CC[C@]23C)nc2ccccc12` .
102
